# target.or.system: Sodium-dependent serotonin transporter (Rattus norvegicus, UniProt P31652)
# Sequence (P31652 whole entry): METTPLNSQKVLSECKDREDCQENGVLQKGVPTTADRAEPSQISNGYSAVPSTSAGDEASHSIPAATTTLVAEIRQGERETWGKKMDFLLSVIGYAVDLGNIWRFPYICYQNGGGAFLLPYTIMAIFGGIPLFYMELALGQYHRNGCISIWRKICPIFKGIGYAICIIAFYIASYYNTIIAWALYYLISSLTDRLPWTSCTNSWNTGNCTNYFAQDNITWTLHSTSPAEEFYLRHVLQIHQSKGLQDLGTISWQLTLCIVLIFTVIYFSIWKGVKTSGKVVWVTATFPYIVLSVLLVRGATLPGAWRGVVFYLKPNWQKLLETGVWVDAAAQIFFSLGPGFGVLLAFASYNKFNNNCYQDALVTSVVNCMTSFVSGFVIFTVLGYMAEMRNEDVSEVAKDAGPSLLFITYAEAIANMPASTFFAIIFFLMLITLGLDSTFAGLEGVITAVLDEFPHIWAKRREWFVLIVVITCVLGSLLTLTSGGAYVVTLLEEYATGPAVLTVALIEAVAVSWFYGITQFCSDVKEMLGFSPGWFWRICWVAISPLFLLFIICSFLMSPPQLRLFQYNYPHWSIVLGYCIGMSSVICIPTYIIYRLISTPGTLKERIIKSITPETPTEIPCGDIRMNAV
# test.protocol: Inhibition of [3H]5-HT uptake at SERT in rat hippocampal synaptosomes
Give measured Ki for each item. Keep answers brief.
One number for each entry, in µM.

Solved cases below.
compound	Ki [µM]
CN1[C@@H](C[C@H](O)c2ccccc2)CCC[C@H]1/C=C/c1ccccc1	3.75
CN1[C@@H](C[C@@H](O)c2ccccc2)CCC[C@H]1/C=C/c1ccccc1	0.044
CN1[C@@H](CC(=O)c2ccccc2)CCC[C@H]1C[C@H](O)c1ccccc1	46.8
CN1[C@H](C[C@@H](O)c2ccccc2)CCC[C@@H]1/C=C/c1ccccc1	7.5
CN1[C@@H](CCc2ccccc2)CCC[C@H]1C[C@@H](O)c1ccccc1	7.3
CN1[C@H](CCc2ccccc2)CCC[C@@H]1C[C@H](O)c1ccccc1	2.22
CN1[C@@H](CCc2ccccc2)CCC[C@H]1C[C@H](O)c1ccccc1	4.27
CN1[C@H](CCc2ccccc2)CCC[C@@H]1C[C@@H](O)c1ccccc1 [8R-hydroxylobelane]	0.15

Pending compound:
**Query** I'd like to know its Ki. The compound in question is CN1[C@H](C[C@H](O)c2ccccc2)CCC[C@@H]1/C=C/c1ccccc1
**Result** 19

Data credit: ChEMBL document CHEMBL1149505
